test system: HFL-1 cells; assay: cADDis assay for cAMP (fluorescent biosensor) in HFL-1 fibroblasts; format: cell-based, human; details: Homo sapiens, HFL1; acute isoproterenol cAMP response; 24 h pretreatment with 100 nM isoproterenol; Fig. 2b
Property label: pEC50
To interpret pEC50, take it as minus log10 of a concentration measured in moles per litre.

## Task Find the recorded pEC50 belonging to CC(C)NCC(O)c1ccc(O)c(O)c1 (stereo not shown) and report it.
## Result 8.65
